B1: Caulobacter ParB omega fusion; a variant is named by its letters at X, in order, B8GW30 (parent)
chain: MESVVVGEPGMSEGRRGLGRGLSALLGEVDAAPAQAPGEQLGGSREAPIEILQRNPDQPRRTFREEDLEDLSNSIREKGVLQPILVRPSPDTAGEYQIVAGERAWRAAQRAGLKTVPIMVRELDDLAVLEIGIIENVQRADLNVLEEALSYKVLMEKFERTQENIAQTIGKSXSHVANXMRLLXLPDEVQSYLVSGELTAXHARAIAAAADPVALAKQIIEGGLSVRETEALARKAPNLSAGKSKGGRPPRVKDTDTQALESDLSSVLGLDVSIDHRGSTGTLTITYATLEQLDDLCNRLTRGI

Variants of: B1
Experiment: one-hybrid fitness for binding parS DNA (scaled: cognate 1, non-cognate 0); higher = stronger binding
Conditions: with parS DNA site
Whole data set: some 81,000 sequences, median “one-hybrid fitness for binding parS DNA” near -0.17, cut for the highest 2% near 0.51. Shown is part of a subset that was picked to be rich in the highest values.
attribute measured: one-hybrid fitness for binding parS DNA
Please state the value as a number alone, without comment.

# one-hybrid fitness for binding parS DNA lookup, item `RYWN`
0.422

Proceed to `RKEC`
0.893

Proceed to `RVIG`
0.904

Proceed to `RVPG`
0.691

Proceed to `RMEC`
0.878

Proceed to `RMEN`
0.369
